Please go through the items and note down their EC50.
- TEST_PROTOCOL: CaMKII Cell-Based Activity: CaMKII activity in neonatal rat ventricular myocytes (NRVM) was measured by monitoring the phosphorylation level of phospholamban using high-content imaging. NRVMs were plated in a clear bottom 384-well plate in medium supplemented with 10% fetal bovine serum (FBS) and incubated at 37° C., 5% CO2 overnight. The medium was changed to a serum-free medium and compounds were dosed to the cells. The cells were incubated at 37° C., 5% CO2 for 4 hours and were then treated with 100 nM ATX-II (Alomone Labs) to activate CaMKII. 10 minutes after the addition of ATX-II, the cells were fixed with 4% formaldehyde followed by permeabilization with 0.1% triton X100. The fixed cells were stained with an anti-phospho-phospholamban primary antibody (Santa Cruz Biotechnology) and an Alexa488-labeled anti-rabbit IgG secondary antibody (Life Technologies Corporation) as well as Hoechst 33342 (Life Technologies Corporation). The cells were imaged using an ArrayScan VTI (Cellomics) and analyzed for cells containing a positive fluorescent signal at 485 nm, reported as % responder. The % responders were plotted against the compound concentration to determine the compounds EC50.
# output: bare number, implied unit nM

Exercise: Dear colleague, I am looking for the recorded EC50 of the following molecule: "COC1CN(c2cc(C(=O)NCC34CCCN3CCC4)cc(-c3cnn4ccc(-c5ccccc5)nc34)n2)C1"
Key: 69.6

Exercise: Dear colleague, I am looking for the recorded EC50 of the following molecule: "CC[C@@]1(CNC(=O)c2ccnc(-c3cnn4ccc(-c5cccs5)nc34)c2)CCCN1"
Key: 129

Exercise: Dear colleague, I am looking for the recorded EC50 of the following molecule: "CCN(CC)[C@@H](C)CNC(=O)c1cc(-c2cnn3ccc(-c4cccs4)nc23)nc(N2CC[C@H]2C(=O)N2CCS(=O)(=O)CC2)c1"
Key: 118

Exercise: Dear colleague, I am looking for the recorded EC50 of the following molecule: "CCN(CC)[C@@H](C)CNC(=O)c1cc(OCCN(C)C)nc(-c2cnn3ccc(-c4cccs4)nc23)c1"
Key: 115

Exercise: Dear colleague, I am looking for the recorded EC50 of the following molecule: O=C(c1ccnc(-c2cnn3ccc(-c4cccs4)nc23)c1)N1CC2CCC(C1)NC2 (stereo not given)
Key: 95.4
